Data origin, for the record: patent US20260125375A1

system-name: C-CBL (Homo sapiens)
Construct: endogenous in cells; host or cells: Jurkat HiBit-IL2 reporter cells, CBL-B knocked out by CRISPR
protocol-description: Jurkat HiBit-IL2 assay (CBL-B KO), reporter cell line expressing C-CBL only
Assay type: cell-based
measurement-parameters: CBL-B KO (C-CBL only), anti-CD3/anti-CD28 stimulation 4 hours, geometric mean, Table 16a, read-out: CBL-B KO EC50 (nM) GMean
reported-metric: EC50 (nM)
Write the answer as a number in nM, unit excluded.

| compound | reported-metric | unit | measured-result |
| --- | --- | --- | --- |
| C[C@H](N[C@H]1CCC(F)(F)C1)c1nc(C(F)(F)F)cc2c(-c3cccc([C@H](c4nncn4C)C4CCC4)c3)n[nH]c12 [Example C8] | EC50 | nM | 44 |
| Cn1cnnc1[C@@H](c1cccc(-c2n[nH]c3c(CN[C@H]4CCC(F)(F)C4)nc(C(F)(F)F)cc23)c1)C1CCC1 (single isomer, unassigned) [Example G1] | EC50 | nM | 775 |
| C[C@@H](N[C@H]1CCC[C@@H]1O)c1nc(C(F)(F)F)cc2c(-c3cccc([C@H](c4nncn4C)C4CCC4)c3)n[nH]c12 (single isomer, unassigned) [Example C46] | EC50 | nM | 392 |
| C[C@H]1CN(Cc2nc(C(F)(F)F)cc3c(-c4cccc([C@H](c5nncn5C)C5CCC5)c4)n[nH]c23)CCO1 [Example C6] | EC50 | nM | 807 |
| C[C@@H](N[C@H]1C[C@@H](O)C1)c1nc(C(F)(F)F)cc2c(-c3cccc([C@H](c4nncn4C)C4CCC4)c3)n[nH]c12 (single isomer, unassigned) [Example C37] | EC50 | nM | 1040 |

// EC50 value for C[C@@H]1CCCN(Cc2nc(C(F)(F)F)cc3c(-c4cccc(C5(Cc6nncn6C)COC5)c4)n[nH]c23)C1 [Example C29] : 1320

// EC50 value for Cn1cnnc1CC1(c2cccc(-c3n[nH]c4c(CN5CCCCC5)nc(C(F)(F)F)cc34)c2)COC1 [Example C33] : 1840

// EC50 value for C[C@H](N[C@@H]1CCOC1)c1nc(C(F)(F)F)cc2c(-c3cccc([C@H](c4nncn4C)C4CCC4)c3)n[nH]c12 (single isomer, unassigned) [Example D2] : 465

// EC50 value for C[C@@H](N[C@@H]1CC[C@@H]1O)c1nc(C(F)(F)F)cc2c(-c3cccc([C@H](c4nncn4C)C4CCC4)c3)n[nH]c12 (single isomer, unassigned) [Example D29] : 139

// EC50 value for C[C@H](c1nc(C(F)(F)F)cc2c(-c3cccc(C4(Cc5nncn5C)COC4)c3)n[nH]c12)N1CCO[C@@H](C)C1 (single isomer, unassigned) [Example D12] : 973

// EC50 value for C[C@H](O)C(=O)N[C@@H](C)c1nc(C(F)(F)F)cc2c(-c3cccc([C@H](c4nncn4C)C4CCC4)c3)n[nH]c12 (single isomer, unassigned) [Example I3] : 17
